Below: a set of entries, each annotated with reported pKi.
assay: Inhibition of influenza A virus chicken/Nakorn-Patom/Thailand/CU-K2-2004 Neuraminidase N1 at pH 7.4 by DIANA assay
Keep in mind that pKi stands for -log10 of concentration in molar terms.

{"CHEM SMILES": "CCC(CC)O[C@@H]1C=C(C(=O)O)C[C@H](n2cc(CNc3ccccc3)nn2)[C@H]1NC(C)=O", "pKi": 5.30}
{"CHEM SMILES": "CCC(CC)O[C@@H]1C=C(C(=O)O)C[C@H](n2cc(CNc3ccc(C(N)=O)c(C(F)(F)F)c3)nn2)[C@H]1NC(C)=O", "pKi": 5.30}
{"CHEM SMILES": "CCC(CC)O[C@@H]1C=C(C(=O)O)C[C@H](NCc2cn(CC(=O)NC)nn2)[C@H]1NC(C)=O", "pKi": 6.13}

Consider the record given below.
Prompt: Given "CCC(CC)O[C@@H]1C=C(C(=O)O)C[C@H](n2cc(CNc3cccc(C(F)(F)F)c3)nn2)[C@H]1NC(C)=O" , respond with its pKi.
Response: 5.72

---

assay: Inhibition of influenza A virus chicken/Nakorn-Patom/Thailand/CU-K2-2004 Neuraminidase N1 at pH 7.4 by DIANA assay
ENDPOINT LABEL: pKi
On this scale, pKi is minus log10 of a concentration expressed in M (mol/L).

Here's what some known entries look like.
{"CHEM SMILES": "CCC(CC)O[C@@H]1C=C(C(=O)O)C[C@H](n2cc(CNc3ccccc3C(N)=O)nn2)[C@H]1NC(C)=O", "pKi": 5.29}
{"CHEM SMILES": "CCC(CC)O[C@@H]1C=C(C(=O)O)C[C@H](n2cc(-c3ccsc3)nn2)[C@H]1NC(C)=O", "pKi": 5.40}
{"CHEM SMILES": "CCC(CC)O[C@@H]1C=C(C(=O)O)C[C@H](n2cc(CNc3cc(F)ccc3OC)nn2)[C@H]1NC(C)=O", "pKi": 4.96}

Prompt: Using known records, supply pKi for "CCC(CC)O[C@@H]1C=C(C(=O)O)C[C@H](n2cc(COCC(C)(CO)CO)nn2)[C@H]1NC(C)=O"
Response: 4.31

Prompt: Answer with the recorded pKi for the compound listed here: "CCC(CC)O[C@@H]1C=C(C(=O)O)C[C@H](NCc2cn(CCN3CCS(=O)(=O)CC3)nn2)[C@H]1NC(C)=O"
Response: 5.21

Prompt: Hello, please tell me recorded pKi for this one: "CCC(CC)O[C@@H]1C=C(C(=O)O)C[C@H](n2cc(-c3cccs3)nn2)[C@H]1NC(C)=O"
Response: 5.15

---

assay: Inhibition of influenza A virus chicken/Nakorn-Patom/Thailand/CU-K2-2004 Neuraminidase N1 at pH 7.4 by DIANA assay
ENDPOINT LABEL: pKi
# reply with the number alone; pKi is -log10 of concentration in mol/L

// worked examples, pKi included
{"CHEM SMILES": "CCC(CC)O[C@H]1CC(C(=O)O)=C[C@@H](n2cc(CN3CCS(=O)(=O)CC3)nn2)[C@@H]1NC(C)=O", "pKi": 4.03}
{"CHEM SMILES": "CCC(CC)O[C@@H]1C=C(C(=O)O)C[C@H](n2cc(C[C@@]3(C(=O)O)CCCN3)nn2)[C@H]1NC(C)=O", "pKi": 4.31}
{"CHEM SMILES": "CCC(CC)O[C@@H]1C=C(C(=O)O)C[C@H](NCc2cn(CCO)nn2)[C@H]1NC(C)=O", "pKi": 6.33}

With those in mind, consider the next molecule.
Prompt: Read the entry "CCC(CC)O[C@@H]1C=C(C(=O)O)C[C@H](NCc2cn(CC(=O)O)nn2)[C@H]1NC(C)=O" and write its reported pKi.
Response: 5.37

Entry source: BindingDB's records for doi:10.1016/j.bmc.2019.05.024
